# Test system: OVCAR-4 ovarian
# measurementDescription: NCI-60 one-dose screen, 48 h (100 = growth as untreated, 0 = no growth, -100 = all killed)
# protocolConditions: 10 µM unless noted
About 83,000 compounds went through this panel and 20% of them were active in at least one assay; those are over-represented in the sample as a whole.
Label rule met when growth is strictly below 80%; at or above that, label rule not met.

compound | tgt | groupLabel
O=c1c2cc(F)ccc2oc2c(NCCNCCO)nc3ccccc3c12 | OVCAR-4 ovarian | rule met
Cc1ccc(S(=O)(=O)N2C/C(=C\c3cc(F)cc(F)c3)C(=O)/C(=C/c3cc(F)cc(F)c3)C2)cc1 | OVCAR-4 ovarian | rule met
O=C1C=CC(=O)N1CCCCCCCCCCN1C(=O)C=CC1=O | OVCAR-4 ovarian | rule not met
CC(C)NCC(O)COc1ccc(CCOCC2CC2)cc1 (centres undefined) | OVCAR-4 ovarian | rule not met
C=C[C@H]1C[C@@H]2C[C@@H]3[C@H]4C/C=C\C(=O)NCCCC5NC(=O)C(=C(O)/C=C/[C@@H]4CC(=O)[C@H]3[C@@H]2[C@H]1C)C5=O (some centres undefined) | OVCAR-4 ovarian | rule met
COc1ccc(-c2[nH]ncc2Nc2cc(OC)c(OC)c(OC)c2)cc1 | OVCAR-4 ovarian | rule met

Field: below-cutoff. Rule: recorded growth strictly less than 80%. Subject: `COc1cc(C(=O)N(C(C)C)C2CCCCC2)cc(OC)c1OC`
rule not met

Field: below-cutoff. Rule: recorded growth strictly less than 80%. Subject: `COc1ccc(-c2nc3sc(C)cn3c2/C=C/C(=O)c2cc(OC)c(OC)c(OC)c2)cc1`
rule met

Field: below-cutoff. Rule: recorded growth strictly less than 80%. Subject: Cc1ccc(S(=O)(=O)N2CCc3ccc(O)c4c3C2CCc2ccccc2-4)cc1 (centres undefined)
rule not met

Field: below-cutoff. Rule: recorded growth strictly less than 80%. Subject: `C=CC[P+](c1ccccc1)(c1ccccc1)c1ccccc1`
rule met

====

# Tested on: LOX IMVI melanoma
# measurementDescription: NCI-60 one-dose screen, 48 h (100 = growth as untreated, 0 = no growth, -100 = all killed)
# protocolConditions: 10 µM unless noted
About 83,000 compounds went through this panel and 20% of them were active in at least one assay; those are over-represented in the sample as a whole.
# growth >= 60% gives 1, anything below gives -1

Study these solved cases before continuing.
compound | groupLabel
Brc1ccc(Br)nn1 | -1
Cc1nc(NN)c([N+](=O)[O-])c(NN)n1 | 1
COc1ccc(OC)c(C2C(C#N)=C(N)Oc3cc(O)ccc32)c1 (stereo unspecified) | 1
CS(=O)(=O)Nc1cccc(C(=O)NCc2ccc(N3CCOCC3)cc2)c1 | 1
CCCCCCCCCCCCSC1=CC(=O)C=CC1=O | -1

Tell me whether growth is at least 60% here: `COc1cc(CNCCN2C(=O)c3ccc4c5c(ccc(c35)C2=O)C(=O)N(CCNCc2cc(OC)c(OC)c(OC)c2)C4=O)cc(OC)c1OC`
-1

Tell me whether growth is at least 60% here: `CC(=O)OC[C@]1(C)C=C2C(=O)[C@](C)(O)C3(CC3)C(C)=C2[C@H]1OC(C)=O`
1

Tell me whether growth is at least 60% here: `COC(=O)[C@@]12CC[C@@H](C)[C@]3(C[C@@H](c4ccoc4)OC3=O)[C@H]1CC[C@@H]1O[C@@]12C`
1

====

# System: SK-MEL-28 melanoma
# measurementDescription: NCI-60 one-dose screen, 48 h (100 = growth as untreated, 0 = no growth, -100 = all killed)
# protocolConditions: 10 µM unless noted
Compounds without any hit were thinned out: in the full panel of roughly 83,000, 20% have a hit.
measurementType: growth (%)
A number alone suffices; assume %.

Give the reported value of growth for this record: NC1=NC(c2ccccc2OS(=O)(=O)c2ccc(Br)cc2)n2c(nc3ccccc32)N1 (stereo not drawn)
102

Give the reported value of growth for this record: `O=c1c2cc(F)ccc2oc2c(NCCNCCO)nc3ccccc3c12`
50.2

====

# System: KM12 colon
# measurementDescription: NCI-60 one-dose screen, 48 h (100 = growth as untreated, 0 = no growth, -100 = all killed)
# protocolConditions: 10 µM unless noted
About 83,000 compounds went through this panel and 20% of them were active in at least one assay; those are over-represented in the sample as a whole. Calls of active or inactive are those of the source. Rule for the calls: active = growth percent below 10; inactive = the rest.
measurementType: growth

Look over these answered cases.
molecule | growth
COC(=O)c1cc(-c2ccc(C)cc2)n(C(=O)CSc2nc3sc(C(N)=O)c(C)c3c(=O)n2Cc2ccccc2)n1 | 100% (inactive)
Cc1nc2cc(Nc3nc(Nc4ccc(F)cc4)nc(N4CCCC4)n3)ccc2n1Cc1ccccc1 | -73.4% (active)
CC1(C)CC(=O)C2=C(C1)Nc1cc3c(cc1C2c1ccc(F)cc1)OCO3 (centres undefined) | 99.3% (inactive)

Give the reported value of growth for this record: O=[N+]([O-])c1cc2c(cc1Br)C1C(C3C2C(Cl)(Cl)C(Cl)=C(Cl)C3(Cl)Cl)C(Cl)(Cl)C(Cl)=C(Cl)C1(Cl)Cl (centres undefined)
106% (inactive)

====

# System: NCI/ADR-RES ovarian
# measurementDescription: NCI-60 one-dose screen, 48 h (100 = growth as untreated, 0 = no growth, -100 = all killed)
# protocolConditions: 10 µM unless noted
The panel holds about 83,000 compounds, 20% with a hit somewhere; the sample as a whole holds those more often. Calls of active or inactive are those of the source. How the source made its calls: active means growth percent below 10; inactive means the rest.
growth values by entry

Look over these answered cases.
molecule | tgt | growth
COc1cc(C2=NN(c3ccc(S(N)(=O)=O)cc3)C(c3ccc(Cl)cc3)C2)cc(OC)c1OC (stereo unspecified) | NCI/ADR-RES ovarian | 37.5% (inactive)
Nc1nc2c(s1)CCc1c-2c(Br)n(Cc2ccccc2)c1Br | NCI/ADR-RES ovarian | 89.7% (inactive)
N#C/C(=C\c1ccc[nH]1)c1cc2ccccc2[nH]1 | NCI/ADR-RES ovarian | 76.9% (inactive)
Cc1nc2cc(Nc3nc(NCCN)nc(Nc4ccc(F)cc4)n3)ccc2n1Cc1ccccc1 | NCI/ADR-RES ovarian | 103% (inactive)
Cc1ccc2nc(NC(=O)CSC(=S)N3CCN(Cc4ccccc4)CC3)sc2c1 | NCI/ADR-RES ovarian | 22.6% (inactive)

Give the reported value of growth for this record: `CCCC1=NNC(=O)C1`
115% (inactive)

Give the reported value of growth for this record: `COc1ccc(C(=O)C2=CC(=O)C(=O)C2)cc1OC`
99.5% (inactive)

Give the reported value of growth for this record: COc1cc(OCc2cccc(-c3ccc(C(O)c4nccs4)cc3)c2C)cc(OC)c1C=O (stereo unspecified)
58.1% (inactive)

Give the reported value of growth for this record: `O=C1C(Cl)=C(NCCCN2CCOCC2)C(=O)c2ccccc21`
99.1% (inactive)

Give the reported value of growth for this record: `COc1ccc(-c2c(-c3cc4c(c(OC)c3OC)OCO4)noc2N)cc1`
2.53% (active)

Give the reported value of growth for this record: `NC(=S)N/N=C1\c2ccccc2-c2c(F)c(F)c(F)c(F)c21`
10.2% (inactive)

====

# Tested on: ACHN renal
# measurementDescription: NCI-60 one-dose screen, 48 h
# protocolConditions: 10 µM unless noted
About 83,000 compounds went through this panel and 20% of them were active in at least one assay; those are over-represented in the sample as a whole. Calls of active or inactive are those of the source. Rule for the calls: active = growth percent below 10; inactive = the rest.
The reply should name one outcome from active, inactive

Study these solved cases before continuing.
compound | groupLabel
N#Cc1c(O)c2c(c(O)c1C#N)C(=O)c1ccccc1C2=O | inactive
O=C1C(OCCOc2ccccc2)=C(OCCOc2ccccc2)C(=O)c2ccccc21 | inactive
CCCCC1COc2cccc3c(SCC(=O)N(C)c4cccc5ccccc45)cc[n+]1c23 (stereo unspecified) | inactive
CCOC(=O)n1cc(C2=C(c3cn(C)c4ccccc34)COC2=O)c2ccccc21 | inactive
Cc1nc2cc(Nc3nc(Cl)nc(Nc4ccc(F)cc4)n3)ccc2n1Cc1ccccc1 | inactive
CCCCC(CCCC)(S(=O)(=O)CC)S(=O)(=O)CC | inactive

What classification did COc1cccc(C2CC(=O)Nc3cc4c(cc32)OCO4)c1OC (stereo unspecified) end up with in this test?
inactive

What classification did CCCCc1ccc(C(O)(CCN2CC3CCC(CC3)C2)c2ccccc2)cc1 (stereo unspecified) end up with in this test?
inactive

What classification did `CN1CCn2c(c(Sc3ccc(C(=O)NO)cc3)c3ccccc32)C1=O` end up with in this test?
inactive

What classification did `O=S(=O)(Nc1ccccc1Cl)c1ccc(-c2cnc(C3CC3)o2)cc1` end up with in this test?
inactive

What classification did `Cc1ccccc1-n1nnc(C(=O)Nc2ccc(-c3ccccc3)cn2)c1C` end up with in this test?
inactive

What classification did `N#C/C(=C\c1ccc[nH]1)c1cc2ccccc2[nH]1` end up with in this test?
inactive

What classification did `Cc1nc2cc(Nc3nc(NCCN)nc(Nc4ccc(F)cc4)n3)ccc2n1Cc1ccccc1` end up with in this test?
inactive

What classification did O=C1CCC(N2Cc3c(C#CCCCNC(=O)c4cc5c(o4)C(=O)c4ccccc4C5=O)cccc3C2=O)C(=O)N1 (stereo unspecified) end up with in this test?
inactive

What classification did `COc1ccc2nc(-n3nc(C)cc3C)c(-n3nc(C)cc3C)nc2c1` end up with in this test?
inactive

What classification did O=C(c1cnn2c1NC(c1ccc(F)cc1)C2)N1CCCCC1 (stereo unspecified) end up with in this test?
inactive

What classification did `O=c1ccc2ccccc2o1` end up with in this test?
inactive

What classification did `CCN(c1ccc(C(=O)N2CCN(c3ccccc3)CC2)cc1)S(C)(=O)=O` end up with in this test?
inactive

What classification did `Cc1ccc(N(CSc2ccc(Cl)cc2)CSc2ccc(Cl)cc2)cc1` end up with in this test?
inactive

What classification did C=C[C@H]1C[C@@H]2C[C@@H]3[C@H]4C/C=C\C(=O)NCCCC5NC(=O)C(=C(O)/C=C/[C@@H]4CC(=O)[C@H]3[C@@H]2[C@H]1C)C5=O (stereo partly specified) end up with in this test?
active

What classification did `Cc1nc2nc(C(F)(F)F)[nH]c2nc1C` end up with in this test?
inactive
